Source listed as PubChem BioAssay AID1159580.

Provide the recorded normalized growth for the entries that follow.
test: chemical genetic growth profiling, strain panel (AID 1159580);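 also: tested at 20 µM; growth read once vehicle control cultures reached saturation at 30 °C; 1 = growth at the plate median or of vehicle wells; lower values mean less growth of the strain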; conditions: S. cerevisiae deletion strains, growth OD, locus YJL095W, strain BCK1, stronger effect = lower value
In all, about 5,500 compounds went through this assay and about 2,000 (36%) were called active. About 18% were inconclusive and are not listed. This is one part of the list.
Answers are plain numbers.

Worked cases, answers included:
1. N#Cc1nccnc1N1CCN(C(=O)Nc2cc(Cl)cc(Cl)c2)CC1 : 0.824
2. COc1ccc(-c2cc(=O)c3c(O)c(OC)c(OC)c(OC)c3o2)cc1OC : 1.01
3. COc1ccc(-c2cc(=O)c3c(O)c(OC)c(OC)cc3o2)cc1O : 0.991
4. COc1ccc(-c2cc(=O)c3c(O)cc(OC)cc3o2)cc1 : 0.931
5. COc1ccc(-c2cc(=O)c3c(OC)c(OC)c(OC)c(OC)c3o2)cc1OC : 0.963

--- query ---
Lookup: Please look up its normalized growth: CCCCCCCCCCCCSc1ncn[nH]1
Found: 0.279

----------
Provide the recorded normalized growth for the entries that follow.
experiment: chemical genetic growth profiling, strain panel (AID 1159580);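 also: tested at 20 µM; growth read once vehicle control cultures reached saturation at 30 °C; 1 = growth at the plate median or of vehicle wells; lower values mean less growth of the strain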; details: S. cerevisiae deletion strains, growth OD, locus YOR136W, strain idh2, stronger effect = lower value
The whole screen tested about 5,500 compounds, of which about 2,000 (36%) were called active. About 18% were inconclusive and are not listed. Some of the results follow.
Answers are plain numbers.

Worked cases, answers included:
1. C[C@]12CCC3C(CC[C@]4(O)C[C@@H](O)CC[C@]34C=O)[C@@]1(O)CCC2C1=CC(=O)OC1 (stereo partly specified) : 0.981
2. CCc1ccc2c(O)c3c(cc2c1C(=O)OC)C(=O)c1c(O)ccc(O)c1C3=O : 1.01
3. CC(=O)OC1CC[C@@]2(C)C(CCC3C2CC[C@]2(C)C(C4=CC(=O)OC4)C(OC(C)=O)CC32O)C1 (stereo partly specified) : 1.02

List reported normalized growth for each of these compounds:
1. C[C@@H]1O[C@@H](O[C@H]2CC[C@]3(C=O)C4CC[C@]5(C)[C@@H](C6=CC(=O)OC6)CC[C@]5(O)C4CC[C@]3(O)C2)[C@H](O)[C@H](O)[C@H]1O (stereo partly specified)
2. C[C@H]1O[C@@H](O[C@H]2[C@@H](O)C[C@H](O[C@H]3[C@@H](O)C[C@H](O[C@H]4CC[C@]5(C)C6CC[C@]7(C)[C@@H](C8=CC(=O)OC8)CC[C@]7(O)C6CC[C@@H]5C4)O[C@@H]3C)O[C@@H]2C)C[C@H](O)[C@@H]1O (stereo partly specified)

Found:
1. 1
2. 0.985

Lookup: Please look up its normalized growth: CO[C@H]1[C@H](O)[C@@H](O[C@H]2CC[C@]3(C=O)C4CC[C@]5(C)[C@@H](C6=CC(=O)OC6)CC[C@]5(O)C4CC[C@@H]3C2)O[C@@H](C)[C@@H]1O (stereo partly specified)
Found: 0.986

----------
test: chemical genetic growth profiling, strain panel (AID 1159580);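 also: tested at 20 µM; growth read once vehicle control cultures reached saturation at 30 °C; 1 = growth at the plate median or of vehicle wells; lower values mean less growth of the strain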; details: S. cerevisiae deletion strains, growth OD, locus YMR223W, strain ubp8
Hit rate of the full screen: of about 5,500 compounds, about 2,000 (36%) were called active. Roughly 18% stayed inconclusive and do not appear here. Rule as the data show it: active = normalized growth mostly below about 0.91 (no sharp cut-off); inconclusive = no clear call, values can overlap the other calls; inactive = mostly above about 0.92. Some of the results follow.
Mark one answer only. Choices: active, inactive

1) CCC(=O)OCC(=O)[C@@]1(OC(=O)CC)[C@@H](C)CC2C3CCC4=CC(=O)C=C[C@]4(C)C3(F)[C@@H](O)C[C@@]21C (some centres not stated) : active

Lookup: Any idea what this test logged for C[N+]1(C)C[C@H](O)[C@H](C(=O)[O-])C1 ?
Found: inactive

Lookup: Any idea what this test logged for CC(=O)OCC(=O)[C@@]1(O)CCC2C3C[C@H](C)C4=CC(=O)C=CC4(C)C3[C@@H](O)CC21C (some centres not stated) ?
Found: inactive

Lookup: Any idea what this test logged for CC1=CC(=O)C2C(C)(C)CCC[C@]2(C)[C@@]1(O)CCc1ccoc1 (some centres not stated) ?
Found: inactive

Lookup: Any idea what this test logged for CCCCC(=O)O[C@]1(C(=O)CO)[C@@H](C)CC2C3CCC4=CC(=O)C=C[C@]4(C)[C@@]3(F)C(O)C[C@@]21C (some centres not stated) ?
Found: inactive

Lookup: Any idea what this test logged for CC1=C2C(O)C(=O)OC3CC4C(C)(C)C(=O)C=C[C@]4(C)C(CC1)[C@]23C (some centres not stated) ?
Found: inactive

Lookup: Any idea what this test logged for CCC(=O)O[C@]1(C(=O)CCl)[C@@H](C)CC2C3CCC4=CC(=O)C=C[C@]4(C)[C@@]3(F)[C@@H](O)C[C@@]21C (some centres not stated) ?
Found: inactive
